target: DPII (Homo sapiens, UniProt Q9UHL4); experiment: DPII assay; format: biochemical; conditions: sodium acetate buffer pH 5.5, Gly-Pro-AMC 1 mM
pIC50: −log10 of the molar value.

molecule: NCc1c(-c2ccc(Cl)cc2Cl)ncn1Cc1ccccc1Cl [Example 81b]
pIC50: 5.13
//
molecule: NCc1c(-c2ccc(Cl)cc2Cl)ncn1Cc1ccccc1F [Example 112b]
pIC50: 4.43
//
molecule: CC(C)(C)Cn1cnc(-c2ccc(Cl)cc2Cl)c1CN [Example 11b]
pIC50: 4.08
//
molecule: NCc1c(-c2ccc(Cl)cc2Cl)ncn1Cc1ccc2c(c1)OCO2 [Example 125b]
pIC50: 4.75
